B1: peptide HD2 (from tick evasin EVA4) / CXCL14 (biotinylated, synthetic) (parent)
chain 1: EEDDYTAYAPLTCYFT
chain 2: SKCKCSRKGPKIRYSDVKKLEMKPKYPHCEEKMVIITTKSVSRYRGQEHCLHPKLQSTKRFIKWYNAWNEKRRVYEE

Variants of: B1
condition: with CXCL14 (biotinylated, synthetic); scale: log2
Measured enrichment, listed per entry for reference.

Answered examples (5):
Report enrichment for chain 1 F15P please.
-5.62

Another: chain 1 L11P
-6.36

Another: chain 1 C13K
-7.38

Another: chain 1 Y14T
-7.2

Another: chain 1 D3R
-5.71

Next up:
Report enrichment for chain 1 E2Q please.
-3.16
